Exercise: for every item that follows, state its recorded IC50.
test: Inhibitory activity against Mannosidase in rat liver

# input Entry O[C@H]1[C@@H]2[C@H](O)CCCN2C[C@H]1O : reported IC50 = ?
# output ~10 µM

# input What would you report for O[C@H]1[C@H]2[C@@H](O)CCCN2C[C@H]1O ?
# output ~50 µM

# input What would you report for OC1CN2CCCCC2C1O (centres undefined) ?
# output 7500 µM

# input What would you report for O[C@@H]1[C@H]2[C@@H](O)CCCN2C[C@H]1O ?
# output ~50 µM

Cited source: ChEMBL document CHEMBL1124582
